System: NALL-1;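 further: ALL cell lines in 384-well plates, five doses spanning 10,000-fold, each plate scaled between vehicle and 100 µmol/L benzalkonium chloride controls, sDSS an adapted area-under-curve metric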
Assay: selective drug sensitivity score (sDSS, relative to normal bone marrow) (sDSS (score)); higher = more potent and effective on the cell line relative to normal bone marrow cells
Details: 72 h
Hi, to clarify the labels: true covers selective drug sensitivity score from 0.8 upward, false covers anything below 0.8.

[[record]]
compound = "CCN(CC)CCN(Cc1ccc(-c2ccc(C(F)(F)F)cc2)cc1)C(=O)Cn1c(SCc2ccc(F)cc2)nc(=O)c2c1CCC2 [Darapladib] (top concentration 1000 nM)"
classification = "true"

[[record]]
compound = "Cc1cc(F)c(C(=O)Nc2cccc(-c3nncn3C(C)C)n2)cc1-n1cnc(C2CC2)c1 [Selonsertib] (top concentration 1000 nM)"
classification = "false"

[[record]]
compound = "Cc1ccc(C(=O)N(CCCN)[C@@H](c2oc3cc(Cl)ccc3c(=O)c2Cc2ccccc2)C(C)C)cc1 (top concentration 100 nM)"
classification = "true"


Is selective drug sensitivity score at least 0.8? Consider Cc1cc2c(C(C)C)c(O)c(O)c(C=O)c2c(O)c1-c1c(C)cc2c(C(C)C)c(O)c(O)c(C=O)c2c1O [AT-101] (top concentration 100000 nM) true

Is selective drug sensitivity score at least 0.8? Consider N#Cc1ccnc(N2C(=O)CC[C@H]2C(=O)N(c2cncc(F)c2)[C@H](C(=O)NC2CC(F)(F)C2)c2ccccc2Cl)c1 [Ivosidenib] (top concentration 10000 nM) false
